# ASSAY SETUP: 299.15 K; 101.33 kPa; Liquid; Vibrating tube method
MEASUREMENT TYPE: mass density (kg/m3)
Lab book: enter the figure in kg/m3, no units written.

CCCCOS(=O)(=O)[O-].CC[n+]1ccn(C)c1 [3-ethyl-1-methylimidazolium butyl sulfate]    1175.55

Specify mass density for CCn1cc[n+](C)c1.O=S(=O)([O-])O [1-ethyl-3-methylimidazolium hydrogen sulfate] and stop.
1365.14

Specify mass density for CCCCCCCCOS(=O)(=O)[O-].CCn1cc[n+](C)c1 [1-ethyl-3-methylimidazolium octyl sulfate] and stop.
1094.99

Specify mass density for CCn1cc[n+](C)c1.COS(=O)(=O)[O-] [1-ethyl-3-methylimidazolium methylsulfate] and stop.
1285.33

Specify mass density for CCCCCCOS(=O)(=O)[O-].CC[n+]1ccn(C)c1 [3-ethyl-1-methyl-1H-imidazolium hexyl sulfate] and stop.
1129.74

* * *

# ASSAY SETUP: 328.15 K; 101.33 kPa; Liquid; Concentric cylinders viscometry
Criterion: viscosity strictly under 100 mPa·s. Met: yes (1). Not met: no (0).

Hi there! Is viscosity for CCCCCCCCOS(=O)(=O)[O-].CCn1cc[n+](C)c1 [1-ethyl-3-methylimidazolium octyl sulfate] below 100 mPa·s, do you know?
no (0)

* * *

# ASSAY SETUP: 316.15 K; 101.33 kPa; Liquid; Vibrating tube method
MEASUREMENT TYPE: mass density (kg/m3)
Lab book: enter the figure in kg/m3, no units written.

Completed entries (count: 4):
CCn1cc[n+](C)c1.COS(=O)(=O)[O-] [1-ethyl-3-methylimidazolium methylsulfate]    1273.74
CCn1cc[n+](C)c1.O=S(=O)([O-])O [1-ethyl-3-methylimidazolium hydrogen sulfate]    1355.05
CCCCOS(=O)(=O)[O-].CC[n+]1ccn(C)c1 [3-ethyl-1-methylimidazolium butyl sulfate]    1164.06
CCCCCCCCOS(=O)(=O)[O-].CCn1cc[n+](C)c1 [1-ethyl-3-methylimidazolium octyl sulfate]    1083.7

Attention now turns to another entry.
Specify mass density for CCCCCCOS(=O)(=O)[O-].CC[n+]1ccn(C)c1 [3-ethyl-1-methyl-1H-imidazolium hexyl sulfate] and stop.
1118.38

* * *

# ASSAY SETUP: 295.15 K; 101.33 kPa; Liquid; Vibrating tube method
Reported values of mass density for individual entries
Lab book: enter the figure in kg/m3, no units written.

Completed entries (count: 4):
CCCCOS(=O)(=O)[O-].CC[n+]1ccn(C)c1 [3-ethyl-1-methylimidazolium butyl sulfate]    1178.3
CCCCCCOS(=O)(=O)[O-].CC[n+]1ccn(C)c1 [3-ethyl-1-methyl-1H-imidazolium hexyl sulfate]    1132.45
CCn1cc[n+](C)c1.O=S(=O)([O-])O [1-ethyl-3-methylimidazolium hydrogen sulfate]    1367.63
CCn1cc[n+](C)c1.COS(=O)(=O)[O-] [1-ethyl-3-methylimidazolium methylsulfate]    1288.1

Attention now turns to another entry.
Specify mass density for CCCCCCCCOS(=O)(=O)[O-].CCn1cc[n+](C)c1 [1-ethyl-3-methylimidazolium octyl sulfate] and stop.
1097.43

* * *

# ASSAY SETUP: 305.15 K; 101.33 kPa; Liquid; Vibrating tube method
Reported values of mass density for individual entries
Lab book: enter the figure in kg/m3, no units written.

Completed entries (count: 3):
CCCCCCCCOS(=O)(=O)[O-].CCn1cc[n+](C)c1 [1-ethyl-3-methylimidazolium octyl sulfate]    1090.99
CCn1cc[n+](C)c1.COS(=O)(=O)[O-] [1-ethyl-3-methylimidazolium methylsulfate]    1281.2
CCn1cc[n+](C)c1.O=S(=O)([O-])O [1-ethyl-3-methylimidazolium hydrogen sulfate]    1361.44

Specify mass density for CCCCCCOS(=O)(=O)[O-].CC[n+]1ccn(C)c1 [3-ethyl-1-methyl-1H-imidazolium hexyl sulfate] and stop.
1125.71

Specify mass density for CCCCOS(=O)(=O)[O-].CC[n+]1ccn(C)c1 [3-ethyl-1-methylimidazolium butyl sulfate] and stop.
1171.46

* * *

# ASSAY SETUP: 319.15 K; 101.33 kPa; Liquid; Vibrating tube method
MEASUREMENT TYPE: mass density (kg/m3)
Lab book: enter the figure in kg/m3, no units written.

CCn1cc[n+](C)c1.COS(=O)(=O)[O-] [1-ethyl-3-methylimidazolium methylsulfate]    1271.72
CCCCOS(=O)(=O)[O-].CC[n+]1ccn(C)c1 [3-ethyl-1-methylimidazolium butyl sulfate]    1162.06
CCn1cc[n+](C)c1.O=S(=O)([O-])O [1-ethyl-3-methylimidazolium hydrogen sulfate]    1353.19
CCCCCCCCOS(=O)(=O)[O-].CCn1cc[n+](C)c1 [1-ethyl-3-methylimidazolium octyl sulfate]    1081.72

Specify mass density for CCCCCCOS(=O)(=O)[O-].CC[n+]1ccn(C)c1 [3-ethyl-1-methyl-1H-imidazolium hexyl sulfate] and stop.
1116.4

* * *

Reported values of viscosity for individual entries
# ASSAY SETUP: 308.15 K; 101.33 kPa; Liquid; Concentric cylinders viscometry
Lab book: enter the figure in mPa·s, no units written.

CCn1cc[n+](C)c1.COS(=O)(=O)[O-] [1-ethyl-3-methylimidazolium methylsulfate]    51.8
CCCCOS(=O)(=O)[O-].CC[n+]1ccn(C)c1 [3-ethyl-1-methylimidazolium butyl sulfate]    107.2
CCn1cc[n+](C)c1.O=S(=O)([O-])O [1-ethyl-3-methylimidazolium hydrogen sulfate]    827.1
CCCCCCCCOS(=O)(=O)[O-].CCn1cc[n+](C)c1 [1-ethyl-3-methylimidazolium octyl sulfate]    319.6

Attention now turns to another entry.
Specify viscosity for CCCCCCOS(=O)(=O)[O-].CC[n+]1ccn(C)c1 [3-ethyl-1-methyl-1H-imidazolium hexyl sulfate] and stop.
175.7

* * *

# ASSAY SETUP: 354.15 K; 101.33 kPa; Liquid; Vibrating tube method
Reported values of mass density for individual entries
Lab book: enter the figure in kg/m3, no units written.

CCn1cc[n+](C)c1.COS(=O)(=O)[O-] [1-ethyl-3-methylimidazolium methylsulfate]    1248.63

Specify mass density for CCn1cc[n+](C)c1.O=S(=O)([O-])O [1-ethyl-3-methylimidazolium hydrogen sulfate] and stop.
1331.97

Specify mass density for CCCCOS(=O)(=O)[O-].CC[n+]1ccn(C)c1 [3-ethyl-1-methylimidazolium butyl sulfate] and stop.
1139.29

Specify mass density for CCCCCCCCOS(=O)(=O)[O-].CCn1cc[n+](C)c1 [1-ethyl-3-methylimidazolium octyl sulfate] and stop.
1059.16

Specify mass density for CCCCCCOS(=O)(=O)[O-].CC[n+]1ccn(C)c1 [3-ethyl-1-methyl-1H-imidazolium hexyl sulfate] and stop.
1093.85

* * *

Reported values of mass density for individual entries
# ASSAY SETUP: 356.15 K; 101.33 kPa; Liquid; Vibrating tube method
Lab book: enter the figure in kg/m3, no units written.

CCn1cc[n+](C)c1.COS(=O)(=O)[O-] [1-ethyl-3-methylimidazolium methylsulfate]    1247.33
CCn1cc[n+](C)c1.O=S(=O)([O-])O [1-ethyl-3-methylimidazolium hydrogen sulfate]    1330.79
CCCCCCOS(=O)(=O)[O-].CC[n+]1ccn(C)c1 [3-ethyl-1-methyl-1H-imidazolium hexyl sulfate]    1092.59

Specify mass density for CCCCCCCCOS(=O)(=O)[O-].CCn1cc[n+](C)c1 [1-ethyl-3-methylimidazolium octyl sulfate] and stop.
1057.89

Specify mass density for CCCCOS(=O)(=O)[O-].CC[n+]1ccn(C)c1 [3-ethyl-1-methylimidazolium butyl sulfate] and stop.
1138.01

* * *

# ASSAY SETUP: 346.15 K; 101.33 kPa; Liquid; Vibrating tube method
MEASUREMENT TYPE: mass density (kg/m3)
Lab book: enter the figure in kg/m3, no units written.

Completed entries (count: 4):
CCCCCCCCOS(=O)(=O)[O-].CCn1cc[n+](C)c1 [1-ethyl-3-methylimidazolium octyl sulfate]    1064.23
CCn1cc[n+](C)c1.O=S(=O)([O-])O [1-ethyl-3-methylimidazolium hydrogen sulfate]    1336.74
CCCCCCOS(=O)(=O)[O-].CC[n+]1ccn(C)c1 [3-ethyl-1-methyl-1H-imidazolium hexyl sulfate]    1098.93
CCn1cc[n+](C)c1.COS(=O)(=O)[O-] [1-ethyl-3-methylimidazolium methylsulfate]    1253.84

Attention now turns to another entry.
Specify mass density for CCCCOS(=O)(=O)[O-].CC[n+]1ccn(C)c1 [3-ethyl-1-methylimidazolium butyl sulfate] and stop.
1144.43

* * *

Reported values of mass density for individual entries
# ASSAY SETUP: 325.15 K; 101.33 kPa; Liquid; Vibrating tube method
Lab book: enter the figure in kg/m3, no units written.

Completed entries (count: 4):
CCCCCCCCOS(=O)(=O)[O-].CCn1cc[n+](C)c1 [1-ethyl-3-methylimidazolium octyl sulfate]    1077.78
CCn1cc[n+](C)c1.O=S(=O)([O-])O [1-ethyl-3-methylimidazolium hydrogen sulfate]    1349.49
CCCCCCOS(=O)(=O)[O-].CC[n+]1ccn(C)c1 [3-ethyl-1-methyl-1H-imidazolium hexyl sulfate]    1112.46
CCCCOS(=O)(=O)[O-].CC[n+]1ccn(C)c1 [3-ethyl-1-methylimidazolium butyl sulfate]    1158.1

Specify mass density for CCn1cc[n+](C)c1.COS(=O)(=O)[O-] [1-ethyl-3-methylimidazolium methylsulfate] and stop.
1267.71
